Target: mutant G2019S LRRK2 (Homo sapiens (Human), UniProt Q5S007, G2019S)
Sequence (Q5S007 whole entry G2019S): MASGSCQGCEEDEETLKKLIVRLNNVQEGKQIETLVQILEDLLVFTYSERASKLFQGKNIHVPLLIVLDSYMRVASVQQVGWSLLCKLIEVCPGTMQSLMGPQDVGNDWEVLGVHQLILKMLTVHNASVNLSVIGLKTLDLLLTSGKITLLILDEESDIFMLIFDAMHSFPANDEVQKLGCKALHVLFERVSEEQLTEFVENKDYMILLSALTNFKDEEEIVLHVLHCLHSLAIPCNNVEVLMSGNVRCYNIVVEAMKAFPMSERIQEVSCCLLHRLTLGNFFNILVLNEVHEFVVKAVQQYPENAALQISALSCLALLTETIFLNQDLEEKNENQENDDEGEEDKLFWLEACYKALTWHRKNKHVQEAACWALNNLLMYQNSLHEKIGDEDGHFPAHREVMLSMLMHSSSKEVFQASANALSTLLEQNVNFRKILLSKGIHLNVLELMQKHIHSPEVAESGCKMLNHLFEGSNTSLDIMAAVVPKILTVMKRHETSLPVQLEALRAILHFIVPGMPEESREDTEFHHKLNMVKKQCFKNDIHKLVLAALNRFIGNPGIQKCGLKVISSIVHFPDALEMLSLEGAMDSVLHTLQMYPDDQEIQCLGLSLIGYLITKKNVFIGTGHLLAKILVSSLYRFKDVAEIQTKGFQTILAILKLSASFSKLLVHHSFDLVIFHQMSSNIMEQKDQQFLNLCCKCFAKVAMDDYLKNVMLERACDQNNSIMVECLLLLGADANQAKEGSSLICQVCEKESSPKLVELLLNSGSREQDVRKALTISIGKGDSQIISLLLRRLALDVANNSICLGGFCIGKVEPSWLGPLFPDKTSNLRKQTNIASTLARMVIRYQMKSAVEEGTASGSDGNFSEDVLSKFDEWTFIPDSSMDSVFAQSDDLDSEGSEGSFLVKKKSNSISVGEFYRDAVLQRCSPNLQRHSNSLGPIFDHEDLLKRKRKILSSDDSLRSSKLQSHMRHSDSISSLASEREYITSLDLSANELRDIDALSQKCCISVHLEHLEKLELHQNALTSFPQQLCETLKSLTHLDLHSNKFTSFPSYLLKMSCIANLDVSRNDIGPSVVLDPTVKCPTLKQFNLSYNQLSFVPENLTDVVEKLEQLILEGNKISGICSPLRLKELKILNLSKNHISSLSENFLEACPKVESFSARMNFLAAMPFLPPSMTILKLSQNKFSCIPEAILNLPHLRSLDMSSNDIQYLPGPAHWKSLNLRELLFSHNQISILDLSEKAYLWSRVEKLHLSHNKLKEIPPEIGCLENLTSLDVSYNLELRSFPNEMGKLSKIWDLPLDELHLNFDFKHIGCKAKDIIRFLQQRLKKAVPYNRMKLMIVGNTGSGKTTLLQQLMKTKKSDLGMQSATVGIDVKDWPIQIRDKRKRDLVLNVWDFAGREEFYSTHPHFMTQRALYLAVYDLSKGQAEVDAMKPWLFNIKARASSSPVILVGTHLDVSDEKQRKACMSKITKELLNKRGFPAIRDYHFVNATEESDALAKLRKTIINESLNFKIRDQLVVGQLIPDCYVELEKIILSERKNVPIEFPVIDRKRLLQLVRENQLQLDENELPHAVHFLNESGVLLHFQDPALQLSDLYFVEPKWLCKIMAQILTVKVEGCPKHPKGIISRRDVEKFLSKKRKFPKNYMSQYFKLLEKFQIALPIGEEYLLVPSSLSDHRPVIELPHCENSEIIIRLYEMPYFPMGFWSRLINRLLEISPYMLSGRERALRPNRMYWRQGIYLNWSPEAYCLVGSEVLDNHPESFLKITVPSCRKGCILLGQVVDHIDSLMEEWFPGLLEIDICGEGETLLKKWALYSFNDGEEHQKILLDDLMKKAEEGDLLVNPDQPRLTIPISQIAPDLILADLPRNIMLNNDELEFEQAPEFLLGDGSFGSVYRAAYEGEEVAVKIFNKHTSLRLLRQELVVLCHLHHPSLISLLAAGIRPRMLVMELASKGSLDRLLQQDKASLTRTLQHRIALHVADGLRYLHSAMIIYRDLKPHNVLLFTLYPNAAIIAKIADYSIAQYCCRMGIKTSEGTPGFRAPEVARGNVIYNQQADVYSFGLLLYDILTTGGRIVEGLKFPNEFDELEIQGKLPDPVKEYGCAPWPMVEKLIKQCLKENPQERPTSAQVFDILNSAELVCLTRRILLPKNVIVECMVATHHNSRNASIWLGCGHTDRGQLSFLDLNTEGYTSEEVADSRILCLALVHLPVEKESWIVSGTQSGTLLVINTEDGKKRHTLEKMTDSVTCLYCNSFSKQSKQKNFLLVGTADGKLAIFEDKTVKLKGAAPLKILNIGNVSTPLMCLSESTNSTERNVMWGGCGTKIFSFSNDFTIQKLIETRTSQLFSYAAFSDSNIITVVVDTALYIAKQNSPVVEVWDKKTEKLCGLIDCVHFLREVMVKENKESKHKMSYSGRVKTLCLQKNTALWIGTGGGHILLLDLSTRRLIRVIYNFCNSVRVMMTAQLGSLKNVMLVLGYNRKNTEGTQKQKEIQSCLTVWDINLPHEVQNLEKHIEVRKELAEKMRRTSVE
Experiment: LRRK2 kinase assay (LanthaScreen), G2019S mutant
Assay type: biochemical
Conditions: G2019S mutant LRRK2; LanthaScreen, LRRKtide substrate; read-out: LRRK2, G2019S IC50
Procedure: LRRK2 kinase activity was measured using Lantha Screen technology from Invitrogen. GST-tagged truncated LRRK2 from Invitrogen (Cat #PV4874) was incubated with a fluorescein-labeled peptide substrate based upon ezrin/radixin/moesin (ERM), also known as LRRKtide (Invitrogen cat #PR8976A), in the presence of a dose response of compound. Upon completion, the assay was stopped and detected with a terbium labeled anti-phospho-ERM antibody (Invitrogen, cat #PR8975A). […]
For each entry below, report its pIC50 value.
Scale explanation: pIC50 corresponds to minus log10 of a concentration expressed in moles per litre.

Report value only: pIC50, mutant G2019S LRRK2 (Homo sapiens (Human), UniProt Q5S007, G2019S), Cc1cnc(Cc2nc3cnc4ccc(Cl)cc4c3n2[C@@H]2CCO[C@H](C)C2)cn1 [Example 95A]
8.22

Report value only: pIC50, mutant G2019S LRRK2 (Homo sapiens (Human), UniProt Q5S007, G2019S), Cc1nc(Cc2nc3cnc4ccc(C#N)cc4c3n2C2CN(C)CC2(F)F)no1 (stereo not shown)
8.22

Report value only: pIC50, mutant G2019S LRRK2 (Homo sapiens (Human), UniProt Q5S007, G2019S), `Cc1cc(Cc2nc3cnc4ccc(C#N)cc4c3n2[C@@H]2CCN(C)C2)on1`
8.21

Report value only: pIC50, mutant G2019S LRRK2 (Homo sapiens (Human), UniProt Q5S007, G2019S), `CCc1nc2cnc3ccc(Cl)cc3c2n1[C@@H]1CCO[C@H](CC#N)C1`
8.05
